Recorded Spec Values, one value per entry.
Test system: MCL-1ΔNΔC
Test: High-throughput competitive FP binding screen, FITC-MCL-1 SAHB/MCL-1ΔNΔC interaction
Details: selectivity for MCL-1ΔNΔC over BCL-XLΔC targeting (BCL-XL % Bound minus MCL-1 % Bound)
Reply: number alone, nothing else.

### Prompt Suppose we examine the compound `N#C/C(=C/c1ccc(-c2ccc(C(=O)O)cc2)o1)c1ccc(Cl)cc1` ; what Spec Values value has been reported?
### Response 46.64

### Prompt Entry under review: `Cc1ccccc1OCC1=NN2C(=N)/C(=C\c3ccc(SCc4ccco4)o3)C(=O)N=C2S1` . Reported Spec Values?
### Response 54.65

### Prompt Using the record for `O=C(CCN1C(=O)/C(=C\C=C\c2ccco2)SC1=S)Nc1ccc(C(=O)O)c(O)c1` , report its Spec Values.
### Response 54.54

### Prompt Entry `CCCCn1c2ccccc2c2nnc(S)nc21` : reported Spec Values = ?
### Response 48.16

### Prompt # Spec Values lookup, item CCSC1=C(C#N)C(=O)NC(c2ccc(O)cc2)S1 (stereo not drawn)
### Response 69.65

### Prompt Return reported Spec Values; argument: Cc1c(Cl)cccc1N1C(=O)CC(Sc2nnnn2-c2ccccc2)C1=O (stereo not drawn)
### Response 45.07

### Prompt Tell me the measured Spec Values of `Cc1cc2c(n1-c1ccc(C(=O)O)cc1)CCCC2` , please.
### Response 71.18

### Prompt Param item = `Cc1nc2sccn2c1-c1nc(-c2ccc(Br)o2)c(C(=O)c2ccc3c(c2)OCCO3)s1` ; retrieve measured Spec Values.
### Response 53.55

### Prompt For the compound shown here, `N#CC(C#N)=C(C#N)c1ccc(-c2ccccc2)[nH]1` , give the reported Spec Values.
### Response 55.59

### Prompt Entry under review: `N#Cc1cc2c([nH]c1=S)CCC2` . Reported Spec Values?
### Response 54.04

---

Target: BCL-XLΔC (Homo sapiens)
Sequence (Q07817 1-212 limits assumed, stated change not applied): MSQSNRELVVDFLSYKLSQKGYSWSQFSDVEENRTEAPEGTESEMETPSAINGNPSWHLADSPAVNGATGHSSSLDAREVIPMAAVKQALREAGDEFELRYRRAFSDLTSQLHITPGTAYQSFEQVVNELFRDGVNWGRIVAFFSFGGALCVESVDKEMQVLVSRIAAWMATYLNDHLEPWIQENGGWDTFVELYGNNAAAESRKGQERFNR
Experiment: High-throughput competitive FP binding screen, FITC-BAD BH3/BCL-XLΔC interaction
measurement-type: BCL-XL % Bound (%)
Value expressed in %; do not type the unit.

### Prompt Endpoint output: BCL-XL % Bound of `Cc1sc(-n2c(C)cc(C=C3C(=O)NC(=S)NC3=O)c2C)c(C#N)c1C` . Value?
### Response 102

### Prompt Given Oc1c(Cl)cc(Cl)c(Cl)c1Cc1c(O)c(Cl)cc(Cl)c1Cl [drawing 23] , state its recorded BCL-XL % Bound.
### Response 100.4

### Prompt Please report the recorded BCL-XL % Bound for `C=CCN1C(=O)/C(=C\c2ccc(OC)cc2)C(=O)NC1=S` .
### Response 95.09

### Prompt So what's the measured BCL-XL % Bound for this one? `Nc1c(C(=O)NCc2ccco2)c2nc3ccccc3nc2n1CCc1ccccc1F`
### Response 99.9

### Prompt Which value of BCL-XL % Bound has been reported for CC1=NOC(=O)/C1=C/c1ccc(-c2ccc(Cl)cc2)o1 [drawing 53] in the records?
### Response 101.5

### Prompt BCL-XL % Bound for `Cc1ccccc1C=C1C(=O)N(C)C(=S)N(C)C1=O` ?
### Response 99.22

### Prompt Tell me the measured BCL-XL % Bound of `CCN1C(=O)C(=Cc2cccn2C)C(=O)N(CC)C1=S` , please.
### Response 105.7
